Just for reference, PubChem BioAssay (NCI) is where these values come from.

Tested on: SF-295 CNS
EXPERIMENTAL PROTOCOL: NCI tumour cell line growth inhibition, 48 h
OUTCOME MEASURE: TGI

COc1cc([N+](=O)[O-])c2ncccc2c1O : 6.77 µM

The reported value for `CC(C)(C)c1ccc(C(O)(c2ccc(C(C)(C)C)cc2)c2ccc(C(C)(C)C)cc2)cc1` in terms of TGI is > 100 µM

Notebook: `CNc1ccc([N+](=O)[O-])cc1C(=O)N1CCC[C@H]1CO` , TGI read as > 100 µM

TGI reading for `Clc1ccc(CCN2CCOCC2)c(Cl)c1` : > 100 µM

Reported TGI of NC(Cc1ccccc1)C(=O)O (stereo unspecified) : > 100 µM

`CN(C)/C(=N/C(=O)Nc1ccccc1)SCc1ccccc1` has a reported TGI of > 100 µM

* * *

System: SK-MEL-28 melanoma
EXPERIMENTAL PROTOCOL: NCI tumour cell line growth inhibition, 48 h
Listed here are molecules together with their documented GI50.

O.O=[Se](=O)(O)O.[NH-]C1CCCCC1[NH-].[Pt+2] (stereo not given) : 10.1 µM

The molecule listed as CC(=O)OCC1OC(O[C@@H]2C[C@H]3C(C)(C)[C@H](OC(C)=O)CC[C@]3(C)[C@H]3CC[C@@H]4[C@]5(CC[C@@]4(C)[C@@]32C)O[C@@H]([C@H](O)C(C)(C)O)C[C@@H]5C)C(O)C(O)C1O (stereo not given in full) shows GI50 equal to 10.2 µM

GI50 reading for `CCOc1ccc(N2C(N)=NC(N)=NC2(C)C)cc1` : 53.7 µM

Entry under test: COc1ccccc1OCC(O)CO (stereo not given) . Its GI50 was > 100 µM

Record `Cc1cc(C#Cc2ccccc2)ccc1-n1c(/C=C/c2ccc(O)cc2)nc2ccccc2c1=O` , field GI50: 4.54 µM

* * *

Test system: HOP-92 NSCLC
EXPERIMENTAL PROTOCOL: NCI tumour cell line growth inhibition, 48 h
OUTCOME MEASURE: TGI (µM)
Just the number in µM, nothing appended.

Cc1[nH]nc(C(=O)N/N=C/c2cccs2)c1N=NN(C)C : 55.1
CC1=C[C@H]2C[C@@]3(C)O[C@@H]([C@]4(C)CC[C@H]([C@@H](C)C(=O)O)OO4)CC3C(C)(C)[C@H]2CC1 (stereo not given in full) : 0.273

Okay, next one:
Form field, TGI with HOP-92 NSCLC, item C=C1C(=O)C23C(CC(OC(C)=O)C1[C@@H]2OC(C)=O)C1(C)C(OC(C)=O)CCC(C)(C)C1C[C@@H]3OC(C)=O (stereo not given in full) : 1.35

* * *

Tested on: M19-MEL melanoma
EXPERIMENTAL PROTOCOL: NCI tumour cell line growth inhibition, 48 h
OUTCOME MEASURE: TGI (µM)
Form entry: value (µM) — number only.

Examples with their reported TGI follow.
O=C1C=Cc2noc3cccc1c23 : 11.2
C[C@@H]1CC2(N=CCS2)[C@]2(O)O[C@@H]3C[C@@]4(C)[C@H](C[C@H]3O[C@@H]2O1)C[C@H]1O[C@]12[C@@H]4[C@H](O)C(=O)[C@]1(C)C(C3=CC(=O)OC3)CC[C@]21O (stereo not given in full) : 0.0784
CCC[CH2][Ge]([CH2]CCC)([CH2]CCC)[O]C(=O)CCl : 23.2

Reported TGI ( `Cc1cc(C(=O)NCCN(C)C)c2nc3ccccc3nc2c1` ) = 13.6

* * *

Test system: OVCAR-4 ovarian
EXPERIMENTAL PROTOCOL: NCI tumour cell line growth inhibition, 48 h; in the data active = GI50 below about 0.43 µM; inactive = the rest
// allowed return values: active, inactive

C=C(C)[C@@H]1CC[C@]2(C#N)CC[C@]3(C)[C@H](CC[C@@H]4[C@@]5(C)CCCNC(C)(C)[C@@H]5CC[C@]43C)[C@@H]12 : inactive

Input: Tell me the assay call for COc1ccccc1OCC(O)CO (centres undefined) please.
Output: inactive

Input: Dear all, I need the recorded test outcome for `COc1cc(C(=O)c2c(-c3ccccc3)oc3ccccc23)cc(OC)c1O` , thank you.
Output: inactive

Input: # fetch the recorded call for `COCCOC(=O)CCn1cc(F)c(=O)[nH]c1=O` here
Output: inactive

Input: Called result for `O=C(Nc1ccc(-c2nc3ccc(NC(=O)c4ccc(Cl)cc4)cc3[nH]2)cc1)c1ccc(Cl)cc1`
Output: inactive

Input: Which outcome was assigned to `C[C@H]1CC(=O)[C@@]2(O)C#C/C=C\C#C[C@@H]3Nc4c(cc(O)c5c4C(=O)c4ccccc4C5=O)[C@]24O[C@]314` in this test?
Output: active

* * *

System: SF-295 CNS
EXPERIMENTAL PROTOCOL: NCI tumour cell line growth inhibition, 48 h; in the data active = GI50 below about 0.43 µM; inactive = the rest
Give one outcome, nothing more. List: active, inactive

Sample answers from the record:
CN1C=CN(Cc2ccc(-c3ccccn3)nc2)[CH-]1.CN1C=CN(Cc2ccc(-c3ccccn3)nc2)[CH-]1.[Au+3] : inactive
C[C@@H]1CC[C@H]2C(CN3CCN(CC4=C(C(F)(F)F)O[C@@H]5O[C@@]6(C)CC[C@H]7[C@H](C)CC[C@@H]4[C@@]57OO6)CC3)=C(C(F)(F)F)O[C@@H]3O[C@@]4(C)CC[C@@H]1[C@]32OO4 : inactive
Cc1cc(I)cc(CN(C)CCCCN2CCCC2)c1O : inactive

Input: Recorded test outcome, item `NC(=O)c1ccc(NC(=O)c2oc3ccccc3c2-c2cnn(-c3ccccc3)c2)cc1`
Output: inactive

Input: # fetch the recorded call for `CCN(CC)c1ccc(/C=N\NC(=O)c2cccc(Nc3ccnc(C(F)(F)F)c3)c2)c(O)c1` here
Output: active

Input: Fill in: this test's call for `CCn1c(-c2cc3ccccc3cc2OC(=O)c2ccccc2)n[nH]c1=S` is ___
Output: inactive

Input: Hi, sorry to bother you, what did the test record for `Cn1cc(/C=C2\C(=O)Nc3cccnc32)c2ccccc21` ?
Output: inactive

Input: Entry `CN(C)c1ccc(/C=N/Nc2ccc(-c3nc4ccccc4[nH]3)cc2)cc1` : call = ?
Output: inactive

Input: Hi, sorry to bother you, what did the test record for `Nc1ccccc1C#Cc1ccccc1C#CCCCCO` ?
Output: inactive

Input: Which outcome was assigned to `COCCOCCOCCOCCOc1ccc2c(c1)C(=O)c1nc3ncccc3c(=O)n1-2` in this test?
Output: active

Input: Write down the call the test reported for this compound. Item: `C[C@H]1CC(=O)[C@@]2(O)C#C/C=C\C#C[C@@H]3Nc4c(cc(O)c5c4C(=O)c4ccccc4C5=O)[C@]24O[C@]314`
Output: active

* * *

Test system: SW-620 colon
EXPERIMENTAL PROTOCOL: NCI tumour cell line growth inhibition, 48 h; in the data active = GI50 below about 0.43 µM; inactive = the rest
Mark one answer only. Choices: TRUE (active), FALSE (inactive)

CN(C)c1ccc(/C=N/Nc2ccc(-c3nc4ccccc4[nH]3)cc2)cc1 : FALSE
NC(=O)c1ccc(-c2c3ccccc3cc3c2ccc2ccccc23)cc1 : FALSE
CCn1cc(C2NC(=O)c3cc(F)ccc3N2)c2cccc(Cl)c21 (stereo not given) : TRUE
CCOc1ccc(N2C(N)=NC(N)=NC2(C)C)cc1 : FALSE
C[C@@H]1CC[C@H]2C(CN3CCN(CC4=C(C(F)(F)F)O[C@@H]5O[C@@]6(C)CC[C@H]7[C@H](C)CC[C@@H]4[C@@]57OO6)CC3)=C(C(F)(F)F)O[C@@H]3O[C@@]4(C)CC[C@@H]1[C@]32OO4 : FALSE
COCCOC(=O)CCn1cc(F)c(=O)[nH]c1=O : FALSE
C=C1C(=O)O[C@H]2[C@H](OC(C)=O)[C@@H](C)CCC/C(C)=C/CC[C@]3(CO3)[C@H](O)C[C@@H]12 : FALSE
CC(C)=CCC[C@](C)(O)[C@H]1CC[C@]2(C)[C@@H]1CC[C@@H]1[C@@]3(C)CC[C@H](OC(=O)CCC(=O)O)C(C)(C)[C@@H]3CC[C@]12C : FALSE

Attention now turns to another entry.
Input: Just curious, what result did `COc1cc(Nc2ncc(-c3ccccc3)o2)cc(OC)c1OC` get here?
Output: FALSE

* * *

// reported TGI per item
Test system: TK-10 renal
EXPERIMENTAL PROTOCOL: NCI tumour cell line growth inhibition, 48 h

CCOC(=O)Cn1c(C)nc2nn(Cc3ccccc3)cc2c1=O : > 100 µM
COc1ccccc1OCC(O)CO (stereo unspecified) : > 100 µM
COc1cc(C(N)=O)c(OC)c(OC)c1OC : > 100 µM
OCC1=C[C@@](COCc2ccccc2)(OCc2ccccc2)[C@@H](OCc2ccccc2)[C@@H]1OCc1ccccc1 : > 100 µM
CCOC(=O)C1C2C1C1C(C(=O)OCC)C21 (stereo unspecified) : > 100 µM

With those in mind, consider the next molecule.
Input `O=C(Nc1ccc(-c2nc3ccc(NC(=O)c4ccc(Cl)cc4)cc3[nH]2)cc1)c1ccc(Cl)cc1` . Output TGI: 5.8 µM
